# pIC50 per record follows
molecular target: BTK (Homo sapiens (Human)); experiment: In vitro BTK kinase assay: BTK-POLYGAT-LS ASSAY
pIC50: −log10 of the molar value.
observation_type: pIC50

[[record]]
compound = "O=C(Nc1cc(C2CCCN(c3ncnc4[nH]ccc34)C2)ccc1OC(F)(F)F)c1ccccc1Cl (stereo not shown)"
tgt = "BTK (Homo sapiens (Human))"
observation_type = "pIC50"
value_measured = "6.00 to 7.00"

[[record]]
compound = "O=C(Nc1cccc(C2CN(c3ncnc4[nH]ccc34)CCN2CCO)c1)Nc1c(Cl)cccc1Cl (stereo not shown)"
tgt = "BTK (Homo sapiens (Human))"
observation_type = "pIC50"
value_measured = "6.00 to 7.00"

[[record]]
compound = "CN1CCN(c2ccccc2NC(=O)Nc2cccc(C3CCCN(c4ncnc5[nH]ccc45)C3)c2)CC1 (stereo not shown)"
tgt = "BTK (Homo sapiens (Human))"
observation_type = "pIC50"
value_measured = "5.00 to 6.00"

[[record]]
compound = "N#Cc1c(N)ncnc1N1CCCC(c2cccc(NC(=O)Nc3ccccc3)c2)C1 (stereo not shown)"
tgt = "BTK (Homo sapiens (Human))"
observation_type = "pIC50"
value_measured = "6.00 to 7.00"


* * *

molecular target: BTK (Homo sapiens (Human), UniProt Q06187); experiment: In vitro BTK kinase assay: BTK-POLYGAT-LS ASSAY; details: read-out: IC50 (10 uM ATP); 10 uM ATP; in vitro Btk kinase assay, Example 41
Sequence (Q06187 whole entry): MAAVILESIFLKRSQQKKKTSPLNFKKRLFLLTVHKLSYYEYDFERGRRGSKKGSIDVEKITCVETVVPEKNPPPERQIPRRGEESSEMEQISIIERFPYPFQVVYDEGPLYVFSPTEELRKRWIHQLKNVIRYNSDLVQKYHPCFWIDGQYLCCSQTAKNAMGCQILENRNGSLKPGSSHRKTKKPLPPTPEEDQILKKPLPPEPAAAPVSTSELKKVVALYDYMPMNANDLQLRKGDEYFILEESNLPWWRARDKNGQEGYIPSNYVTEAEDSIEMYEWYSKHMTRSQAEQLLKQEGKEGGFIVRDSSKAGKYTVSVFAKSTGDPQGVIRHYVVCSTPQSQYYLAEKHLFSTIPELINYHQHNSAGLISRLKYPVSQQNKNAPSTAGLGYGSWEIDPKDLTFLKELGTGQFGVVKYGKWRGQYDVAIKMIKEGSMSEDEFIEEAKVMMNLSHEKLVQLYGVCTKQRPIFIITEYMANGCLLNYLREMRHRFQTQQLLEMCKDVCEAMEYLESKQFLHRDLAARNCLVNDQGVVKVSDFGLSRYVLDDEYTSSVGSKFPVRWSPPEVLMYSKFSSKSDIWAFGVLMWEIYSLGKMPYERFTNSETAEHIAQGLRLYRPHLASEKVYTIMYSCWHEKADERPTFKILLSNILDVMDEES
observation_type: IC50

[[record]]
molecule = "O=C(Nc1ccccc1)Nc1ncc(C2CCCN(c3ncnc4[nH]ccc34)C2)s1 (stereo not shown) [compound 115]"
tgt = "BTK (Homo sapiens (Human), UniProt Q06187)"
value_measured = "> 10 µM"

[[record]]
molecule = "O=C(NCC1CCOCC1)Nc1cccc(C2CCCN(c3ncnc4[nH]ccc34)C2)c1 (stereo not shown) [compound 223]"
tgt = "BTK (Homo sapiens (Human), UniProt Q06187)"
value_measured = "> 10 µM"

[[record]]
molecule = "O=C1[C@H](Nc2cc(Cl)cc(Cl)c2)CCN1[C@@H]1CCCN(c2ncnc3[nH]ccc23)C1 [compound 323]"
tgt = "BTK (Homo sapiens (Human), UniProt Q06187)"
value_measured = "< 0.1 µM"

[[record]]
molecule = "O=c1c(Nc2ccccc2)c(Nc2cccc(C3CCCN(c4ncnc5[nH]ccc45)C3)c2)c1=O (stereo not shown) [Cmpd 69]"
tgt = "BTK (Homo sapiens (Human), UniProt Q06187)"
value_measured = "> 10 µM"


* * *

target: BTK (Homo sapiens (Human)); test: In vitro BTK kinase assay: BTK-POLYGAT-LS ASSAY
pIC50: −log10 of the molar value.
observation_type: pIC50

[[record]]
molecule = "O=C(Nc1ccccc1)Nc1cccc(C2CCCN(c3ncnc4[nH]nc(Br)c34)C2)c1 (stereo not drawn)"
tgt = "BTK (Homo sapiens (Human))"
observation_type = "pIC50"
value_measured = "5.00 to 6.00"

[[record]]
molecule = "O=C(NCC1CCCC1)Nc1cccc(C2CCCN(c3ncnc4[nH]ccc34)C2)c1 (stereo not drawn)"
tgt = "BTK (Homo sapiens (Human))"
observation_type = "pIC50"
value_measured = "6.00 to 7.00"

[[record]]
molecule = "O=C(COc1ccccc1)Nc1cccc(C2CCCN(c3ncnc4[nH]ccc34)C2)c1 (stereo not drawn)"
tgt = "BTK (Homo sapiens (Human))"
observation_type = "pIC50"
value_measured = "5.00 to 6.00"

[[record]]
molecule = "O=C(Nc1ccccc1)N[C@@H]1CCN(C2CCCN(c3ncnc4[nH]ccc34)C2)C1 (stereo partly drawn)"
tgt = "BTK (Homo sapiens (Human))"
observation_type = "pIC50"
value_measured = "5.00 to 6.00"

[[record]]
molecule = "CNc1ncnc(N2CCC[C@@H](N3CCCC(Nc4cc(F)cc(Cl)c4)C3=O)C2)c1F (stereo partly drawn)"
tgt = "BTK (Homo sapiens (Human))"
observation_type = "pIC50"
value_measured = "5.00 to 6.00"

[[record]]
molecule = "CN(C)c1ccccc1NC(=O)Nc1cccc(C2CCCN(c3ncnc4[nH]ccc34)C2)c1 (stereo not drawn)"
tgt = "BTK (Homo sapiens (Human))"
observation_type = "pIC50"
value_measured = "5.00 to 6.00"

[[record]]
molecule = "O=C(Nc1cccc(C2CCCN(c3ncnc4[nH]ccc34)C2)c1)Nc1cc(F)ccc1N1CCCC1 (stereo not drawn)"
tgt = "BTK (Homo sapiens (Human))"
observation_type = "pIC50"
value_measured = "6.00 to 7.00"

[[record]]
molecule = "O=C(Nc1cccc(C2CCCN(c3ncnc4[nH]ccc34)C2)c1)Nc1c(F)cc(F)cc1N1CCCC1 (stereo not drawn)"
tgt = "BTK (Homo sapiens (Human))"
observation_type = "pIC50"
value_measured = "> 7.00"

[[record]]
molecule = "O=C(NCc1ccccc1)Nc1cccc(C2CCCN(c3ncnc4[nH]ccc34)C2)c1 (stereo not drawn)"
tgt = "BTK (Homo sapiens (Human))"
observation_type = "pIC50"
value_measured = "5.00 to 6.00"

[[record]]
molecule = "O=C(NC[C@H]1CCCC[C@@H]1O)Nc1cccc(C2CCCN(c3ncnc4[nH]ccc34)C2)c1 (stereo partly drawn)"
tgt = "BTK (Homo sapiens (Human))"
observation_type = "pIC50"
value_measured = "5.00 to 6.00"

[[record]]
molecule = "CC(C)CNC(=O)Nc1cccc(C2CCCN(c3ncnc4[nH]ccc34)C2)c1 (stereo not drawn)"
tgt = "BTK (Homo sapiens (Human))"
observation_type = "pIC50"
value_measured = "5.00 to 6.00"

[[record]]
molecule = "O=C(Nc1ccccc1)Nc1cccc(C2CCCN(c3ncnc4[nH]ccc34)C2)n1 (stereo not drawn)"
tgt = "BTK (Homo sapiens (Human))"
observation_type = "pIC50"
value_measured = "5.00 to 6.00"

[[record]]
molecule = "O=C1C(Nc2ccccc2)CCCN1[C@@H]1CCCN(c2ncnc3[nH]ccc23)C1 (stereo partly drawn)"
tgt = "BTK (Homo sapiens (Human))"
observation_type = "pIC50"
value_measured = "6.00 to 7.00"

[[record]]
molecule = "O=C(Nc1ccc(F)cc1)Nc1cccc(C2CCCN(c3ncnc4[nH]ccc34)C2)c1 (stereo not drawn)"
tgt = "BTK (Homo sapiens (Human))"
observation_type = "pIC50"
value_measured = "5.00 to 6.00"

[[record]]
molecule = "O=C(Nc1cccc(C2CCCN(c3ncnc4[nH]ccc34)C2)c1)Nc1cccnc1F (stereo not drawn)"
tgt = "BTK (Homo sapiens (Human))"
observation_type = "pIC50"
value_measured = "5.00 to 6.00"

[[record]]
molecule = "O=c1nc(Nc2cccc(C3CCCN(c4ncnc5[nH]ccc45)C3)c2)[nH]c2c1CCCC2 (stereo not drawn)"
tgt = "BTK (Homo sapiens (Human))"
observation_type = "pIC50"
value_measured = "5.00 to 6.00"

[[record]]
molecule = "Nc1ncnc(N2CC[C@@H](C(F)(F)F)[C@H](N3CCC[C@H](Nc4cc(Cl)cc(Cl)c4)C3=O)C2)c1F"
tgt = "BTK (Homo sapiens (Human))"
observation_type = "pIC50"
value_measured = "5.00 to 6.00"

[[record]]
molecule = "O=C(Nc1cccc(C2CCCN(c3ncnc4[nH]ccc34)C2)c1)Nc1ccccc1-n1ccnc1 (stereo not drawn)"
tgt = "BTK (Homo sapiens (Human))"
observation_type = "pIC50"
value_measured = "5.00 to 6.00"

